- ASSAY_NAME: in vivo
- CONDITION_PARAMETERS: CD-1, mouse, iv, 5 mg/kg
RESULT_TYPE: clearance

stdin: // fetch clearance given entry CNCc1ccc(-c2[nH]c3cc(F)cc4c3c2CCNC4=O)cc1 [compound of formula 1]
stdout: 136 mL/min/kg

====

- ASSAY_NAME: in vivo
- CONDITION_PARAMETERS: CD-1, mouse, iv, 5 mg/kg
RESULT_TYPE: half-life (h)
Provide the reading as a plain figure in h.

stdin: Give half-life for the following compound: CNCc1ccc(-c2[nH]c3cc(F)cc4c3c2CCNC4=O)cc1 [compound of formula 1]
stdout: 2.3

====

- ASSAY_NAME: Plasma and tumor levels by HPLC/MS in mice bearing SW620 xenograft
- Assay type: in vivo
- CONDITION_PARAMETERS: mouse, tumor, intraperitoneal, 1 mg/kg, Tumor compound of formula 1, 1.0 mg/kg i.p. as phosphate salt; 0.5 h
RESULT_TYPE: concentration at 0.5 h
Your answer should be a number followed by the unit of measure.

stdin: Report concentration at 0.5 h, nothing else, for this compound: CNCc1ccc(-c2[nH]c3cc(F)cc4c3c2CCNC4=O)cc1 [compound of formula 1]
stdout: 98.3 ng/g

====

- ASSAY_NAME: IV pharmacokinetics in dogs
- CONDITION_PARAMETERS: Beagle, in vivo; dog; 15 mg/kg single IV dose as glucuronate salt
RESULT_TYPE: half-life (min)
Unit min implied. Number only.

stdin: Write down half-life measured for item CNCc1ccc(-c2[nH]c3cc(F)cc4c3c2CCNC4=O)cc1
stdout: 270

====

- ASSAY_NAME: IV pharmacokinetics in rats
- CONDITION_PARAMETERS: Wistar, rat, in vivo, 5 mg/kg
RESULT_TYPE: Vd
# number then unit; no other words

stdin: Please look at this molecule and report its Vd: CNCc1ccc(-c2[nH]c3cc(F)cc4c3c2CCNC4=O)cc1
stdout: 10 L/kg

====

- ASSAY_NAME: Plasma and tumor levels by HPLC/MS in mice bearing SW620 xenograft
- Type: in vivo
- CONDITION_PARAMETERS: mouse, tumor, intraperitoneal, 10 mg/kg, Tumor compound of formula 1, 10 mg/kg i.p. as phosphate salt; 6 h
RESULT_TYPE: concentration at 6 h
Please answer in the form of a number followed by its unit of measurement.

stdin: Specify reported concentration at 6 h for the molecule shown: CNCc1ccc(-c2[nH]c3cc(F)cc4c3c2CCNC4=O)cc1 [compound of formula 1]
stdout: 523 ng/g

====

- ASSAY_NAME: IV pharmacokinetics in rats
- CONDITION_PARAMETERS: Wistar, rat, in vivo, 5 mg/kg
RESULT_TYPE: clearance
Note to self: number, then unit, no commentary.

stdin: Please indicate clearance recorded for CNCc1ccc(-c2[nH]c3cc(F)cc4c3c2CCNC4=O)cc1
stdout: 85 mL/min/kg

====

- ASSAY_NAME: Plasma and tumor levels by HPLC/MS in mice bearing SW620 xenograft
- Assay type: in vivo
- CONDITION_PARAMETERS: mouse, plasma, intraperitoneal, 1 mg/kg, Plasma compound of formula 1, 1.0 mg/kg i.p. as phosphate salt; 0.5 h
RESULT_TYPE: concentration at 0.5 h (ng/mL)
Return type: number; implicit unit ng/mL.

stdin: Name the recorded concentration at 0.5 h of the item CNCc1ccc(-c2[nH]c3cc(F)cc4c3c2CCNC4=O)cc1 [compound of formula 1] in your answer.
stdout: 107

====

- ASSAY_NAME: IV pharmacokinetics in dogs
- CONDITION_PARAMETERS: Beagle, in vivo; dog; 15 mg/kg single IV dose as glucuronate salt; read-out: Vss
RESULT_TYPE: Vd (L/kg)
Give just the number in L/kg; leave the unit off.

stdin: Supply measured Vd of CNCc1ccc(-c2[nH]c3cc(F)cc4c3c2CCNC4=O)cc1 [compound of formula 1] in your reply.
stdout: 15.2

====

- ASSAY_NAME: Plasma and tumor levels by HPLC/MS in mice bearing SW620 xenograft
- Type: in vivo
- CONDITION_PARAMETERS: mouse, plasma, intraperitoneal, 1 mg/kg, Plasma compound of formula 1, 1.0 mg/kg i.p. as phosphate salt; 6 h
RESULT_TYPE: concentration at 6 h (ng/mL)
Numeric answer only, unit ng/mL assumed.

stdin: Entry CNCc1ccc(-c2[nH]c3cc(F)cc4c3c2CCNC4=O)cc1 [compound of formula 1] needs its concentration at 6 h filled in; supply it.
stdout: 6.64

====

- ASSAY_NAME: IV pharmacokinetics, summary over all species
- Parameters: species or system CD-1 mice, Wistar rats, Beagle dogs, and cynomolgus monkeys
- CONDITION_PARAMETERS: CD-1 (mouse), Wistar (rat), Beagle (dog), cynomolgus monkey, in vivo, IV dosing
- From the text: Each of the dose treatment groups was split into 2 cohort groups of 4 mice. The reason for cohort blood sampling is due to the blood volume limitations of the mouse species. Blood was drawn from each cohort every other pharmacokinetic sampling time. […] Three mice per dose group were euthanized at each of the collection time points. […] Blood from each rat was collected for each time point.
RESULT_TYPE: clearance

stdin: // Input: CNCc1ccc(-c2[nH]c3cc(F)cc4c3c2CCNC4=O)cc1 . Output its clearance only.
stdout: 34 to 136 mL/min/kg

====

- ASSAY_NAME: Plasma and tumor levels by HPLC/MS in mice bearing SW620 xenograft
- Format: in vivo
- CONDITION_PARAMETERS: mouse, tumor, intraperitoneal, 1 mg/kg, Tumor compound of formula 1, 1.0 mg/kg i.p. as phosphate salt; 6 h
RESULT_TYPE: concentration at 6 h (ng/g)
Quick reminder: number only, in ng/g, skip the unit.

stdin: Provide measured concentration at 6 h value, entry: CNCc1ccc(-c2[nH]c3cc(F)cc4c3c2CCNC4=O)cc1
stdout: 49.5

====

- ASSAY_NAME: Plasma and tumor levels by HPLC/MS in mice bearing SW620 xenograft
- Type: in vivo
- CONDITION_PARAMETERS: mouse, plasma, intraperitoneal, 10 mg/kg; 6 h; read-out: plasma concentrations
RESULT_TYPE: concentration at 6 h (ng/mL)
Form entry: value (ng/mL) — number only.

stdin: Tell me concentration at 6 h reported for CNCc1ccc(-c2[nH]c3cc(F)cc4c3c2CCNC4=O)cc1
stdout: 30

====

- ASSAY_NAME: IV pharmacokinetics, summary over all species
- Parameters: species or system CD-1 mice, Wistar rats, Beagle dogs, and cynomolgus monkeys
- CONDITION_PARAMETERS: CD-1 (mouse), Wistar (rat), Beagle (dog), cynomolgus monkey, in vivo, IV dosing, read-out: volume of distribution
- Excerpt: Each of the dose treatment groups was split into 2 cohort groups of 4 mice. The reason for cohort blood sampling is due to the blood volume limitations of the mouse species. Blood was drawn from each cohort every other pharmacokinetic sampling time. […] Three mice per dose group were euthanized at each of the collection time points. […] Blood from each rat was collected for each time point.
RESULT_TYPE: Vd

stdin: Please report Vd for the following compound: CNCc1ccc(-c2[nH]c3cc(F)cc4c3c2CCNC4=O)cc1
stdout: 7 to 15 L/kg

====

- ASSAY_NAME: IV pharmacokinetics in monkeys
- CONDITION_PARAMETERS: cynomolgus monkey, in vivo, 15 mg/kg single IV dose as glucuronate salt
RESULT_TYPE: half-life (h)
Your answer should be a plain number; it is taken to be in h.

stdin: Report half-life, nothing else, for this compound: CNCc1ccc(-c2[nH]c3cc(F)cc4c3c2CCNC4=O)cc1
stdout: 5.2

====

- ASSAY_NAME: IV pharmacokinetics in rats
- CONDITION_PARAMETERS: Wistar, rat, in vivo, 5 mg/kg
RESULT_TYPE: half-life (h)
All answers are understood in h, so give the number only.

stdin: Look up and report measured half-life for this entry: CNCc1ccc(-c2[nH]c3cc(F)cc4c3c2CCNC4=O)cc1
stdout: 2.8

====

- ASSAY_NAME: IV pharmacokinetics in rats
- CONDITION_PARAMETERS: Wistar, rat, in vivo, 5 mg/kg
RESULT_TYPE: AUC(0-inf) (ng·h/mL)
Response body: numeric value in ng·h/mL, unit text excluded.

stdin: Give AUC(0-inf) for CNCc1ccc(-c2[nH]c3cc(F)cc4c3c2CCNC4=O)cc1
stdout: 990

====

- ASSAY_NAME: Plasma and tumor levels by HPLC/MS in mice bearing SW620 xenograft
- Format: in vivo
- CONDITION_PARAMETERS: mouse, tumor, intraperitoneal, 10 mg/kg, Tumor compound of formula 1, 10 mg/kg i.p. as phosphate salt; 24 h
RESULT_TYPE: concentration at 24 h (ng/g)
Give the quantity in ng/g, number only.

stdin: # return recorded concentration at 24 h for input CNCc1ccc(-c2[nH]c3cc(F)cc4c3c2CCNC4=O)cc1
stdout: 167
